- measured.target: AxCT mask27 EGFR EH104 L001 version 1
proteins and their reported Percent cleavage
Expressed in %, but write only the number.

{"columns": ["protein", "Percent cleavage [%]"],
 "data": [
  ["Matriptase (protein) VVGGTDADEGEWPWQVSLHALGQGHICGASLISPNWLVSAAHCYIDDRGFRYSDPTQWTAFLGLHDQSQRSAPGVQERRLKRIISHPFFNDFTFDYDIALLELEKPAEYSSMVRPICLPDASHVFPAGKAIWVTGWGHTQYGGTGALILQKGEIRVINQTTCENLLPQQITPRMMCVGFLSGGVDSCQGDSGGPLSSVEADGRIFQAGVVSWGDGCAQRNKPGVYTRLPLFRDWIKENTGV", 37],
  ["Neutrophil Elastase (protein) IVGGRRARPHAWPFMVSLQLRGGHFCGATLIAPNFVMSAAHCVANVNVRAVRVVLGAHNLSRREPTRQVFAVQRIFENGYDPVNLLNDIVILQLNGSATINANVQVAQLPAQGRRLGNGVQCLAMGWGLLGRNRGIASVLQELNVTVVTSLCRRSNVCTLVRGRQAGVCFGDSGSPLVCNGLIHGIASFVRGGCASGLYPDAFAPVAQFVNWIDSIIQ", 34],
  ["MMP-1 (protein) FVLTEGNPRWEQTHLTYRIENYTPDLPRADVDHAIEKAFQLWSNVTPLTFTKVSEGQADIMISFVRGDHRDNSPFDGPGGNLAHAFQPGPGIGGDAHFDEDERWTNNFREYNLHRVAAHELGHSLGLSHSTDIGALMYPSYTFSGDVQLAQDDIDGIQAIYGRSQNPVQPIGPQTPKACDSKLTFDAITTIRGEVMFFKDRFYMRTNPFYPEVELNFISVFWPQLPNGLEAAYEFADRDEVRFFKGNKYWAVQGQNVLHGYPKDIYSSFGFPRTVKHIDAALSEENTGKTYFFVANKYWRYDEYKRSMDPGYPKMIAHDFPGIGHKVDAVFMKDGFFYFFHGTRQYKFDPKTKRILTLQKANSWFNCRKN", 40],
  ["Cathepsin G (protein) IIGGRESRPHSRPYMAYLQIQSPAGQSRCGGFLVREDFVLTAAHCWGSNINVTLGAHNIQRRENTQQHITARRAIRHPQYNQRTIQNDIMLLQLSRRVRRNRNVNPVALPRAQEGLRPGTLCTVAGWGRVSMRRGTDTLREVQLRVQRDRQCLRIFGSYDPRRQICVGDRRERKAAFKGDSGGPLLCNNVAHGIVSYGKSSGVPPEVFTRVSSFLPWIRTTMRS", 0],
  ["MMP-7 (protein) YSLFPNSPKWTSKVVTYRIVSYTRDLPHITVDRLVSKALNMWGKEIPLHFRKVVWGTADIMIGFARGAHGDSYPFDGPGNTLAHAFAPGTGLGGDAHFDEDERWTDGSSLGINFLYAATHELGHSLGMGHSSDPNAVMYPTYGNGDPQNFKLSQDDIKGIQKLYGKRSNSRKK", 71]
]}

// query Percent cleavage value for entry MMP-12 (protein) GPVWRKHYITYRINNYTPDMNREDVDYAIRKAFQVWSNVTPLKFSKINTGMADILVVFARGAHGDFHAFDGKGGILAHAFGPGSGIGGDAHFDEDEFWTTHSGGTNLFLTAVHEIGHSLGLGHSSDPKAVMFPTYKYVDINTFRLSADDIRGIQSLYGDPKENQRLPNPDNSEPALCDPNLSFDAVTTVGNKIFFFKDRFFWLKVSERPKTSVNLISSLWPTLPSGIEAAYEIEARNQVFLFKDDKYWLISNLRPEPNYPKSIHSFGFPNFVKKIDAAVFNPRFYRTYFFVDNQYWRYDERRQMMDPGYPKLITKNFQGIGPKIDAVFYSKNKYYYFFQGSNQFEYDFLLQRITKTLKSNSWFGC 68
